- target or system: Amyloid-beta precursor protein (Homo sapiens, UniProt P05067)
- Sequence (P05067 whole entry, the tested form may be a part): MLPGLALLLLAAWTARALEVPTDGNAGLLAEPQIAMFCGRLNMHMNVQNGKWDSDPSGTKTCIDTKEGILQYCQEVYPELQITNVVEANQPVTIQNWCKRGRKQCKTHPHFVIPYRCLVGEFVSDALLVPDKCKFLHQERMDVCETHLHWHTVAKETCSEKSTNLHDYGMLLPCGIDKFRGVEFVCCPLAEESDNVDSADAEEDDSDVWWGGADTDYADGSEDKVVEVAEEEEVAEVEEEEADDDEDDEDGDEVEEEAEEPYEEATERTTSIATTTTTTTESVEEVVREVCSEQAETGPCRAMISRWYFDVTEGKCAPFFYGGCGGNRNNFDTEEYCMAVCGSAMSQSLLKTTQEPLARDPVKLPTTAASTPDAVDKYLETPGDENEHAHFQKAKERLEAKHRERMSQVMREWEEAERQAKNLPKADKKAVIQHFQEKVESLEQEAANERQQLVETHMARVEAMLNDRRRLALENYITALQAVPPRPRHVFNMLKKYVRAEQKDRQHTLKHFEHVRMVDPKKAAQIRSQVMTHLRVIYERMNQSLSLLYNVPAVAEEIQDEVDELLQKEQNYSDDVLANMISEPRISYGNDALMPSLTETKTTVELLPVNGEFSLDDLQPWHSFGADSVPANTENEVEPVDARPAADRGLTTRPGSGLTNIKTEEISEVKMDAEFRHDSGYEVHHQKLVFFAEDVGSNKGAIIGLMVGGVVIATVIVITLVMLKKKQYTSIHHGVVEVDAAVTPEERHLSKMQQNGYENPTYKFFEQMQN
- method notes: Inhibition of HFIP-pretreated amyloid beta (1 to 42 residues) (unknown origin) aggregation at 1:10 protein to compound ratio after 24 hrs by ThT fluorescence assay relative to control
- condition parameters: concentration not given here
endpoint label: inhibition

Illustrative cases are given below, each with its answer.
>>> result("FC(F)(F)c1ccc(Nc2ccc3c(C4CCNCC4)c[nH]c3c2)cn1")
"81 to 93%"
>>> result("Fc1ccc(Nc2ccc3c(C4CCNCC4)c[nH]c3c2)cc1F")
"81 to 93%"
>>> result("CN1CCC(c2c[nH]c3cc(Nc4ccc(F)c(F)c4)ccc23)CC1")
"81 to 93%"
>>> result("COc1ccc(Nc2ccc3c(C4CCN(C)CC4)c[nH]c3c2)cc1OC")
"81 to 93%"
>>> result("c1cc2c(C3CCNCC3)c[nH]c2cc1Nc1ccc2c(C3CCNCC3)c[nH]c2n1")
"> 90%"
>>> result("Cn1cc(C2CCNCC2)c2ccc(Nc3ccc(F)c(F)c3)cc21")
"81 to 93%"
>>> result("c1cc2c(C3CCNCC3)c[nH]c2cc1Nc1ccc2c(C3CCNCC3)c[nH]c2c1")
"> 90%"
>>> result("CN1CCC(c2c[nH]c3ccc(Nc4ccc5c(C6CCNCC6)c[nH]c5n4)cc23)CC1")
"> 90%"

Prompt: // returns reported inhibition for input c1cc2ccc(Nc3ccc4cc[nH]c4c3)cc2[nH]1
Completion: 96%

Prompt: Fill in: inhibition of Fc1ccc(Nc2ccc3cc[nH]c3n2)cc1 is ___
Completion: 52%

Prompt: Can you look up the measured inhibition of Fc1cc(F)cc(Nc2ccc3cc[nH]c3n2)c1 for me?
Completion: 60%

Prompt: Which value of inhibition has been reported for Fc1cc(F)cc(Nc2cnc3cc[nH]c3c2)c1 in the records?
Completion: 52%

Prompt: GET /values?readout=inhibition&item= c1cc2cc(Nc3ccc4cc[nH]c4n3)ccc2[nH]1
Completion: 97%
